Target: human DGKα (Homo sapiens (Human), UniProt P23743)
Sequence (P23743 whole entry, looked up): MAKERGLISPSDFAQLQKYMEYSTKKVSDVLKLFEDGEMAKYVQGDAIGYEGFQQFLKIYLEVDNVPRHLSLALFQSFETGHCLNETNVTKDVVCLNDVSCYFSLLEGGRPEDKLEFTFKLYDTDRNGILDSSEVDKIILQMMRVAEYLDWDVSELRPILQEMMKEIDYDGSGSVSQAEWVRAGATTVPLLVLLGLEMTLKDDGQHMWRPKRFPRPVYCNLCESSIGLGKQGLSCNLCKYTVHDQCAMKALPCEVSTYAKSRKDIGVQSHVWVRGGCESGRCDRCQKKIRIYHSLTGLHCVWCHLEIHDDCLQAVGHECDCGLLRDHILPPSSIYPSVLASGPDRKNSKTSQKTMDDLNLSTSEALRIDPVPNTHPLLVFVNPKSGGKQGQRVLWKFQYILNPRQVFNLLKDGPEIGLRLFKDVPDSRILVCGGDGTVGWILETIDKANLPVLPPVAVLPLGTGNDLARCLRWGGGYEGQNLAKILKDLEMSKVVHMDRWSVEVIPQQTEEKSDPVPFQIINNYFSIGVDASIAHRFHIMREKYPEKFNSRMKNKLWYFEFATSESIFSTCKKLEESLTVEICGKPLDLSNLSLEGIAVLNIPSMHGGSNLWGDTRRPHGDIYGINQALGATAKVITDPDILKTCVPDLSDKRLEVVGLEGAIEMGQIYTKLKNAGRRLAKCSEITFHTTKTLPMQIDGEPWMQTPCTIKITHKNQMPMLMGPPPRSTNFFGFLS
Test: DGKα ADPGLO assay (detergent/lipid micelle substrate)
Assay type: biochemical
Conditions: truncated DGK alpha; read-out: DGK alpha ADPGLO (Truncated) IC50
Outcome Measure: IC50 (nM)

Please review the following examples before continuing.
Compound	IC50 / nM
[2H]C([2H])([2H])Oc1ccc(C(CC)N2C[C@H](CC)N(c3nc(=O)n(C)c4ccc(C#N)nc34)C[C@H]2CC)cc1 (single isomer, unassigned) [Example 209]	91
CCC(c1ccc(C2CC2)cc1)N1C[C@H](CC)N(c2nc(=O)n(C)c3ccc(C#N)nc23)C[C@H]1CC (stereo partly shown) [Example 200]	12

(a) CC[C@H]1CN(C(C)c2ccc(C)nc2)[C@H](CC)CN1c1nc(=O)n(C)c2ccc(C#N)nc12 (stereo partly shown) [Example 228]
(b) CC[C@H]1CN(C(C)c2ccc(CN3CC4(COC4)C3)cc2)[C@H](CC)CN1c1nc(=O)n(C)c2ccc(C#N)nc12 (stereo partly shown) [Example 280]
(c) CCC(c1ccc(OC)cc1)N1C[C@H](CC)N(c2nc(=O)n(C)c3ccc(C#N)nc23)C[C@H]1CC (stereo partly shown) [Example 212]
Task item: Order the 3 compounds from highest to lowest IC50. Quick reminder: the answer is the labels in the order asked.
Reply: b, a, c
(b: 42700 nM, a: 190 nM, c: 18 nM)

* * *

Molecular target: human DGKζ (Homo sapiens (Human), UniProt Q13574)
Sequence (Q13574 other isoform, or with tags, fused parts or gaps): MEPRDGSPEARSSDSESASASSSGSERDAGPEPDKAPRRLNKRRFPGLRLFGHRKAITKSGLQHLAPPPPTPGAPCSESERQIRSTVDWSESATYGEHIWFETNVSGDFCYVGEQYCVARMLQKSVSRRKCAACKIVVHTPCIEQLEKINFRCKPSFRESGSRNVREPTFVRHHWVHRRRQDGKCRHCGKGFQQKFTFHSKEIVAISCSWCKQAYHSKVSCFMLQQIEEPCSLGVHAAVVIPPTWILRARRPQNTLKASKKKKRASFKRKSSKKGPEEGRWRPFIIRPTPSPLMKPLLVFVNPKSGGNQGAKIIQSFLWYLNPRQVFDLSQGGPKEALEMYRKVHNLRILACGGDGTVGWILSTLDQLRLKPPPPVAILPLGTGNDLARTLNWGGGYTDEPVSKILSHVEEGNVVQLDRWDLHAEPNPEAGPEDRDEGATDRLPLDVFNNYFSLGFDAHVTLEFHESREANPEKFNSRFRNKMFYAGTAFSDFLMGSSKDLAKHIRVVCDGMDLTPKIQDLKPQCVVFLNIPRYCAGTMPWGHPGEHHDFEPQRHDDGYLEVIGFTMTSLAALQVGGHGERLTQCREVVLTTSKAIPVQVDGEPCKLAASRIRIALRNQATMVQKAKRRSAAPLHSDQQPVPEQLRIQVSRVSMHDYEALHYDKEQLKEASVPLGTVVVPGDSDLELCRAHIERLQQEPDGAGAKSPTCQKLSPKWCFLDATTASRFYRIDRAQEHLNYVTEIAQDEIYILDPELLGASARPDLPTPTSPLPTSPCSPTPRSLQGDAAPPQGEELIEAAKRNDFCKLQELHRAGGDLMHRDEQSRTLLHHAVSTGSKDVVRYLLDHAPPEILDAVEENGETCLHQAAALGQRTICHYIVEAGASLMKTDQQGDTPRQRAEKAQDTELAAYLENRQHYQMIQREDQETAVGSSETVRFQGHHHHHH
Assay: DGKζ LIPGLO assay (extruded liposome substrate, ADP-Glo luminescence)
Format: biochemical
Conditions: liposome assay; read-out: DGK zeta LIPGLO IC50
pIC50: −log10 of the molar value.
Outcome Measure: pIC50

Please review the following examples before continuing.
Compound	Measurement
CC[C@H]1CN(C(C)c2ccc(C(F)(F)F)cc2)[C@H](CC)CN1c1nc(=O)n(C)c2ccc(C#N)nc12 (single isomer, unassigned) [Example 20]	7.44
CCC(c1ccc(OC(F)(F)F)cc1F)N1C[C@H](CC)N(c2nc(=O)n(C)c3ccc(C#N)nc23)C[C@H]1CC (single isomer, unassigned) [Example 12]	6.22
CC[C@@H]1CN(c2nc(=O)n(C)c3ccc(C#N)nc23)[C@@H](C)CN1C(c1ccc(F)cc1)c1csc(C(F)(F)F)n1 (stereo partly drawn) [Example 297]	6.96
CC[C@H]1CN(C(C)c2cccc(OC(F)F)n2)[C@H](CC)CN1c1nc(=O)n(C)c2ccc(C#N)nc12 (stereo partly drawn) [Example 240]	6.96
CC[C@@H]1CN(c2nc(=O)n(C)c3ccc(C#N)nc23)[C@@H](C)CN1C(c1ccc(OC(F)(F)F)cc1)c1cc(C2CC2)on1 (stereo partly drawn) [Example 99]	6.92

(A) CC[C@H]1CN(C(C)c2ccc(OC(F)(F)F)cc2F)[C@H](CC)CN1c1nc(=O)n(C)c2ccc(C#N)nc12 (single isomer, unassigned) [Example 38]
(B) CC[C@H]1CN(C(c2ccc(OC)cc2)C(C)C)[C@H](CC)CN1c1nc(=O)n(C)c2ccc(C#N)nc12 (stereo partly drawn) [Example 249]
Task item: Given the two records A and B , choose the one whose pIC50 value is lower. Provide the label of your selected option as the answer.
Reply: A
(A: 6.92, B: 7.40)

(P) CC[C@@H]1CN(c2nc(=O)n(C)c3ccc(C#N)nc23)[C@@H](C)CN1C(c1ccc(F)cc1)c1nc(C2CC2)no1 (stereo partly drawn) [Example 112]
(Q) CC[C@@H]1CN(c2nc(=O)n(C)c3ccc(C#N)nc23)[C@@H](C)CN1C(C)c1ccc(OCC2CC2)cc1 (single isomer, unassigned) [Example 68]
Task item: Select the item with the higher value of pIC50 from the options P and Q listed. Provide the label of your selected option as the answer.
Reply: P

(A) CC[C@H]1CN(C(c2ccc(OC(F)(F)F)cc2)c2cc(C3CC3)on2)[C@H](CC)CN1c1nc(=O)n(C)c2ccc(C#N)nc12 (single isomer, unassigned) [Example 42]
(B) CC[C@@H]1CN(c2nc(=O)n(C)c3ccc(C#N)nc23)[C@@H](C)CN1C(C)c1ccc(OCC2CC2)cc1F (single isomer, unassigned) [Example 70]
(C) CC[C@@H]1CN(c2nc(=O)n(C)c3ccc(C#N)nc23)[C@@H](CC)CN1Cc1ccc(OC(F)(F)F)cc1F [Example 27]
Task item: Please order the records by their reported pIC50, lowest number first. Quick reminder: the answer is the labels in the order asked.
Reply: B, C, A
